# TEST PROTOCOL: nonselective calcium mobilization agonists, CHO-Ga16 cells, counter-screen for hTAAR1 agonist project, cell-based, fluorescence, CHO-Ga16 parental line (AID 651787);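 also: 0% = DMSO wells and 100% = maximal ATP response on the peak over basal ratio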
# CONDITION CONTEXT: Fluo-8 calcium fluorescence, at 3 µM, normalized to maximal ATP response, DMSO zero
The whole screen tested about 2,400 compounds, of which about 1,200 (50%) were called active.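 The calls were made as follows: active = activation above the run cutoff, the mean activation over all tested wells plus 3 SD (cut at about 12% in these data); inactive = the rest.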 The set was probably picked from earlier hits. Not all results are given here.
Reply using exactly one outcome from 1.0 (active), 0.0 (inactive)

Before answering, review these 5 worked examples.
What is the recorded call for this molecule in the test? "Cc1ccn2c(=O)c(C(=O)NCCC3=CCCCC3)c(O)nc2c1"
0.0

Hello, I am checking results. What call was entered for "Cc1c(CNCCc2ccccc2)c(C(=O)O)c(C)n1-c1ccccc1" ?
0.0

Please let me know the test result on file for COc1ccc(C(=O)CN2C(=O)NC(C)(c3ccc(C)cc3)C2=O)cc1OC (stereo not drawn) .
1.0

Recorded test call requested for "O=C(CNC(=O)c1ccccc1F)OCC(=O)c1c[nH]c2ccccc12"
0.0

Call for entry "Nc1c(C(=O)c2cccs2)sc2nsc(SCCN3CCCCC3)c12" :
1.0

Others:
Outcome logged for "COC(=O)c1[nH]c2cccc(C)c2c1NC(=O)CN1CCCc2ccccc21" in this assay:
0.0

Please state the recorded outcome for this molecule: NC(Cc1ccccc1)c1csc(Nc2cc(Oc3ccccc3)ncn2)n1 (stereo not drawn)
1.0

What was the test verdict on "Cc1onc(-c2ccccc2)c1C(=O)NNC(=S)NC(=O)c1ccc(F)cc1" ?
1.0

Short answer needed: outcome of this test for "CCCOc1ccc(-c2c(C(=O)N/N=C/c3ccco3)nnn2-c2nonc2N)cc1" ?
1.0

For this molecule, state the assay outcome: "c1ccc(-c2csc(N3CCc4ccccc4C3)n2)cc1"
0.0

* * *

# TEST PROTOCOL: nonselective calcium mobilization agonists, CHO-Ga16 cells, counter-screen for hTAAR1 agonist project, cell-based, fluorescence, CHO-Ga16 parental line (AID 651787);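 also: 0% = DMSO wells and 100% = maximal ATP response on the peak over basal ratio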
# CONDITION CONTEXT: Fluo-8 calcium fluorescence, at 3 µM, hits give high values, normalized to maximal ATP response, DMSO zero
The campaign covered roughly 2,400 compounds. About 1,200 (50%) were called active. So high a share suggests a set chosen from earlier hits. A selection follows.
MEASUREMENT KIND: activation

Examples with answers:
Fill blank: measured activation of the compound "C[C@H](NC(=O)c1ccccc1)C(=O)OCC(=O)c1c[nH]c2ccccc12" is ____.
0% (inactive)

Request the reported activation associated with COc1cc(OC)cc(C(=O)N[C@H](C(=O)OCC(=O)NC(C)c2ccccc2)C(C)C)c1 (some centres undefined)
24.2% (active)

// lookup activation for "COc1cc(OC)c(-n2cc(-c3ccc(Cl)cc3)[nH]c2=O)cc1Cl"
74.4% (active)

Now take the following compound into account.
Fill blank: measured activation of the compound "C#CCOc1ccc(/C=C2/C(=O)NN(c3ccccc3)C2=O)cc1OC" is ____.
45.9% (active)

* * *

# TEST PROTOCOL: nonselective calcium mobilization agonists, CHO-Ga16 cells, counter-screen for hTAAR1 agonist project, cell-based, fluorescence, CHO-Ga16 parental line (AID 651787);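 also: 0% = DMSO wells and 100% = maximal ATP response on the peak over basal ratio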
# CONDITION CONTEXT: Fluo-8 calcium fluorescence, at 3 µM, hits give high values, normalized to maximal ATP response, DMSO zero
The whole screen tested about 2,400 compounds, of which about 1,200 (50%) were called active. The set was probably picked from earlier hits. These entries were drawn from the full list.
Classify by measured activation: Fulfilled if it is equal to or exceeds 30%, Not fulfilled if it is smaller.

Record "O=C1C=C(c2ccc(Cl)cc2)C(=O)N1Nc1ccccc1" ; criterion: activation no lower than 30%. Met?
Fulfilled

More entries:
Answer whether activation of "CCCCCc1c(-c2ccc(OC)c(OC)c2)ncn1CCc1ccccc1OC" is greater than or equal to 30%.
Not fulfilled

hey, is activation for this one >= 30%? "N#Cc1ccc(OCCCN2CCC(C(O)(c3ccccc3)c3ccccc3)CC2)c(F)c1"
Not fulfilled

Can "CCCSc1nc2c(c(=O)n(C)c(=O)n2C)n1Cc1ccc(C)cc1" be said to have activation at or above 30%?
Fulfilled

Say whether "CC(=O)Nc1ccccc1Sc1ccc2c3c(cccc13)C(=O)N(c1ccc(C)cc1)C2=O" shows activation of 30% or more.
Not fulfilled

* * *

Readings of activation for the listed compounds
# TEST PROTOCOL: nonselective calcium mobilization agonists, CHO-Ga16 cells, counter-screen for hTAAR1 agonist project, cell-based, fluorescence, CHO-Ga16 parental line (AID 651787);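 also: 0% = DMSO wells and 100% = maximal ATP response on the peak over basal ratio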
# CONDITION CONTEXT: Fluo-8 calcium fluorescence, at 3 µM, hits give high values, normalized to maximal ATP response, DMSO zero
Screen size: about 2,400 compounds; about 1,200 (50%) were called active. So high a share suggests a set chosen from earlier hits. A selection follows.
Please state the figure in %; there is no need to write the unit.

The examples below pair each entry with its known result.
// activation lookup, key: "CN(C)c1ccc(/C=C2\NC(=S)N(Cc3ccccc3)C2=O)cc1"
67.4

Name the recorded activation for "COc1ccc2cc(-c3[nH]ncc3CNCCn3nc(C)cc3C)ccc2c1" .
0.78

Bench note: what activation did "CC(=O)Oc1ccc(Cn2c(C)c(C(=O)NCc3ccc(C#N)cc3)sc2=O)cc1" show?
66.2

activation for "O=C(/C=C/[C@H]1O[C@@H](n2cnc3c(NC(=O)c4ccccc4)ncnc32)[C@H](O)[C@@H]1O)NCc1ccccc1" ?
0.21

Could you share which activation value was measured for "c1ccc(CCN2CN=C(Nc3nc4ccccc4o3)NC2)cc1" ?
0.14

Query compound follows.
Give its activation value. Item: "O=[N+]([O-])c1cc(S(=O)(=O)NCCc2ccccn2)ccc1Cl"
2.99

* * *

# TEST PROTOCOL: nonselective calcium mobilization agonists, CHO-Ga16 cells, counter-screen for hTAAR1 agonist project, cell-based, fluorescence, CHO-Ga16 parental line (AID 651787);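 also: 0% = DMSO wells and 100% = maximal ATP response on the peak over basal ratio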
# CONDITION CONTEXT: Fluo-8 calcium fluorescence, at 3 µM, hits give high values, normalized to maximal ATP response, DMSO zero
About 1,200 (50%) of roughly 2,400 compounds were called active. So high a share suggests a set chosen from earlier hits. These entries were drawn from the full list.
Parameter threshold = 10%. Response is yes (1) when activation meets or exceeds it, else no (0).

Please check the record "Cc1cc(C)c2cc(C#N)c(N3CCNCC3)nc2c1" and state if its activation is at or above 10%.
no (0)

Is the recorded value of activation equal to or greater than 10% for this compound? "Cc1ccc(NC(=O)CCN2CCc3ccccc3C2)cc1"
yes (1)

Textbook exercise: given the entry "COc1cccc(N(CC(=O)N2CCc3ccccc3C2)S(C)(=O)=O)c1" , state whether its activation is greater than or equal to 10%.
no (0)

Next:
Does the reported activation for "O=C(N[C@H](C(=O)N1CCC[C@H]1C(=O)NCCc1ccccc1Cl)c1ccccc1)c1ccccc1" fall at or above the 10% mark?
no (0)

Confirm if activation reported for the compound "CN(C(=O)CN(CCO)CC(=O)N(C)C(C)(C)Cc1ccccc1)C(C)(C)Cc1ccccc1" is 10% or above.
yes (1)

Evaluate "CCCCOc1ccc(CSC(=N)N)cc1[N+](=O)[O-]" : activation at minimum 10%?
yes (1)

Reported activation reaches at least 10% for "c1ccc2c(c1)C(=NC1CCCCC1)NC2=NC1CCCCC1" ?
yes (1)

Textbook exercise: given the entry CCCC1CCC(=NNC(=S)NCCc2ccccc2)CC1 (stereo not drawn) , state whether its activation is greater than or equal to 10%.
yes (1)

Please tell me: is the compound "CCOc1ccc(Br)cc1CSC(=N)N" at or over 10% in terms of activation?
no (0)

Would you say CC(C)(C)CC(=O)Nc1nc(C(N)Cc2ccc(C(F)(F)F)cc2)cs1 (stereo not drawn) shows activation at minimum 10%?
yes (1)

Hi, just wondering whether "Nc1c(NCCc2ccccc2)c2ccccc2oc1=O" shows activation of 10% or higher.
no (0)

Evaluate O=C(O)C1CC=CCC1C(=O)NCCc1ccccc1 (stereo not drawn) : activation at minimum 10%?
no (0)

Record "Nc1nnn(CC(=O)N/N=C/c2ccccc2)n1" ; criterion: activation no lower than 10%. Met?
no (0)

* * *

# TEST PROTOCOL: nonselective calcium mobilization agonists, CHO-Ga16 cells, counter-screen for hTAAR1 agonist project, cell-based, fluorescence, CHO-Ga16 parental line (AID 651787);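 also: 0% = DMSO wells and 100% = maximal ATP response on the peak over basal ratio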
# CONDITION CONTEXT: Fluo-8 calcium fluorescence, at 3 µM, hits give high values, normalized to maximal ATP response, DMSO zero
In all, about 2,400 compounds went through this assay and about 1,200 (50%) were called active. So high a share suggests a set chosen from earlier hits. The list is a sample of the results.
Catalogue of compounds with associated activation
Report the figure in % without appending any unit label.

Here is how some compounds turned out for activation.
Fill blank: measured activation of the compound "Cc1ccc(Cl)cc1N1CCN(C(=O)c2cccc3c(=O)c(C)c(-c4ccccc4)oc23)CC1" is ____.
78.9

Using the record for "CCCc1cc(C(=O)Nc2ccc(C(=O)OC)cc2)cs1" , report its activation.
4.88

Param item = NC(c1ccccc1)c1csc(NC(=O)Nc2cccc(C(F)(F)F)c2)n1 (stereo not given) ; retrieve measured activation.
37

Next:
# lookup: activation of COc1ccc2c(c1)OC(O)(C(F)(F)C(F)F)CC2=O (stereo not given)
27.7

Item under review: COc1ccc(C(N)c2csc(NC(=O)Nc3cccc(C(F)(F)F)c3)n2)cc1 (stereo not given) . Reported activation?
22.4
